# MEASURED_TARGET: ScPex13
# ASSAY_SUMMARY: SPOT peptide array binding signal intensity (averaged, normalized) (arbitrary units (background-subtracted, floor 0; scale differs between SH3 domains)); higher = stronger binding of the SH3 domain to the peptide
REPORTED_PROPERTY: SPOT peptide array binding signal intensity

These recorded examples may help you get a feel for the data.
>  <BINDER>
APPLPPTAPPPPSLP

>  <RESULT>
≤ 0

$$$$
>  <BINDER>
FVLRYYILIPHEQWD

>  <RESULT>
7.5

$$$$

Give SPOT peptide array binding signal intensity for the following binder: "RRRIAYPFYPFKKLG"
0.5

Give SPOT peptide array binding signal intensity for the following binder: "VRVKKRPLIRPLNSS"
0.25

Give SPOT peptide array binding signal intensity for the following binder: "NNQRRKPLLLNIGDH"
≤ 0

Give SPOT peptide array binding signal intensity for the following binder: "VPKEPAPAPPPEPDM"
≤ 0

Give SPOT peptide array binding signal intensity for the following binder: "DKSRPPRPPPKPLHL"
669
